# Test system: RPMI-8226
# METHOD: NCI tumour cell line growth inhibition, 48 h
Calls of active or inactive are those of the source. Rule as the data show it: active = GI50 up to about 1.1 µM and inactive = higher.
MEASURED QUANTITY: GI50

COMPOUND	VALUE MEASURED
O=c1c2ccccc2[nH]c(=S)n1-c1ccc(/N=N/c2cccc3cc(O)ccc23)cc1	> 100000 nM (inactive)
Cc1ccc2c(O)cc(-c3ccccc3)nc2n1	115 nM (active)
COc1ccc2nc3cccc(C(=O)NCCN(C)C)c3nc2c1	824 nM (active)
Cc1cccc(N/C(Sc2ccccc2)=C(/C(Cl)=C(Cl)Cl)[N+](=O)[O-])c1	30400 nM (inactive)
CCOC(=O)C(Cc1cn(S(=O)(=O)c2ccc(C)cc2)cn1)P(=O)(OCC)OCC (centres undefined)	> 100000 nM (inactive)
O=[N+]([O-])/C=C/c1cn(CCCCCCCCn2cc(/C=C/[N+](=O)[O-])c3ccccc32)c2ccccc12	410 nM (active)
Cc1cc(NS(=O)(=O)c2ccc(Nc3c4ccccc4nc4c(C(=O)NCCO)cccc34)cc2)no1	19400 nM (inactive)
O=C1/C(=C/c2ccccc2)CN(C(=O)C(Cl)(Cl)Cl)C/C1=C\c1ccccc1	34.8 nM (active)
CCCC(=O)O[C@H]1C=C2C[C@@]34SS[C@]5(CC6=C[C@H](OC(C)=O)[C@@H]7O[C@@H]7[C@H]6N5C3=O)C(=O)N4[C@@H]2[C@H]2O[C@H]21	5.24 nM (active)

* * *

# System: RPMI-8226
# METHOD: NCI tumour cell line growth inhibition, 48 h
Calls of active or inactive are those of the source. Rule as the data show it: active = GI50 up to about 1.1 µM and inactive = higher.
The following compounds are shown together with reported GI50 values.
MEASURED QUANTITY: GI50

COMPOUND	VALUE MEASURED
O=C1C=C(Br)c2c(-c3ccccc3)oc3cccc1c23	> 39.3 µM (inactive)
CC12CCC(O)CC1CCC1C2CCC2(C)C(C(=O)CC(O)C(F)(F)F)CCC12 (stereo not given)	4.04 µM (inactive)
Cc1ccc([N+](=O)[O-])cc1S(=O)(=O)Nc1ccc(C2=NN(c3ccc([N+](=O)[O-])cc3[N+](=O)[O-])C(c3ccccc3)C2)cc1 (stereo not given)	9.27 µM (inactive)
CCOC(=O)c1nc2ccccc2n(CC)c1=O	> 100 µM (inactive)
Nc1c(C(=O)c2ccc(Cl)cc2)[nH]c(Nc2ccc(Cl)cc2)c1C(=S)Nc1ccccc1	14.5 µM (inactive)
C=C(Br)N(CC)CC	> 100 µM (inactive)
OCCOCCN1CCN(c2nc(N3CCCC3)c3nc(Cl)c(NCc4ccccc4)nc3n2)CC1	7.64 µM (inactive)
Cc1ccc(/C=C/C(=O)c2sc(-n3nc(-c4ccccc4)cc3-c3ccccc3)nc2C)cc1	> 100 µM (inactive)
CN(C)c1ccc2c3c(c(=O)oc2c1)CCC3	37.6 µM (inactive)
CC1=C2C3OC(=O)C(C)C3C(O)C[C@@]2(C)C(=O)CC1 (stereo not given in full)	> 100 µM (inactive)

* * *

# System: HT-29
# METHOD: NCI tumour cell line growth inhibition, 48 h
The source made the active and inactive calls. Cut-off read from the data, not from the text of the source: active = GI50 up to about 1.1 µM and inactive = higher.
The following molecules are shown together with reported GI50 values.
MEASURED QUANTITY: GI50

MOLECULE	MEASURED QUANTITY	VALUE MEASURED
O=C1NC(NNc2ccccc2)=N/C1=C\c1ccccc1O	GI50	61 µM (inactive)
CCOC(=O)c1c2ccc(/C=C/c3ccccn3)ccc-2c(C(=O)OCC)c1N	GI50	> 100 µM (inactive)
CC(C)(Oc1ccc2c(=O)cc(-c3ccc(Cl)cc3)oc2c1)C(=O)Nc1c(Cl)cccc1Cl	GI50	> 100 µM (inactive)
CN(C)c1ccc2c3c(c(=O)oc2c1)CCC3	GI50	44.8 µM (inactive)
Clc1ccc(C2=C(c3ccccc3)C(c3ccc(Cl)cc3)N3C(=N[C@H]4CCCC[C@@H]43)N2)cc1 (stereo partly specified)	GI50	3.27 µM (inactive)
COc1cc(CNNC(N)=S)cc(OC)c1OC	GI50	> 100 µM (inactive)
CCOC(=O)c1nc2ccc(C(F)(F)F)cc2nc1NCc1ccc(Cl)c(Cl)c1	GI50	29.1 µM (inactive)
CCC12CCCN(Cc3ccccc3)C1c1c(n(C)c3ccccc13)CC2 (stereo unspecified)	GI50	167 µM (inactive)
O=c1oc2ccccc2cc1-c1cn2cc(Cl)ccc2n1	GI50	7.11 µM (inactive)
Oc1ccccc1C1C=C(c2ccccc2)NC(N2CCCCC2)=C1c1nc2ccccc2[nH]1 (stereo unspecified)	GI50	15.2 µM (inactive)
O=C(O)C(Cc1ccccc1)Cc1ccccc1	GI50	> 100 µM (inactive)

* * *

# Tested on: DMS-114
# METHOD: NCI tumour cell line growth inhibition, 48 h
Calls of active or inactive are those of the source. Rule as the data show it: active = GI50 up to about 1.1 µM and inactive = higher.
Outcomes: active, inactive

COMPOUND	ASSIGNED CLASS
COc1cc2cnc3c4cc(OCc5ccccc5)ccc4ccc3c2cc1OC	inactive
Cc1cc(C)c(C(=O)/C=C/c2ccccc2)c(C)c1	inactive
CC(=O)[O-].[Zn+].c1ccc(/C(=N\Nc2ccccn2)c2ccccn2)cc1	active
COc1cc([C@@H]2c3cc4c(cc3[C@@H](NCc3ccccc3)C3COC(=O)[C@@H]32)OCO4)cc(OC)c1O (stereo partly specified)	inactive
CC1/C(=N\O)CC(c2ccccc2)N(C)C1c1ccccc1 (stereo unspecified)	inactive
O=C1C(=O)N(c2ccc(Cl)cc2Cl)C(=O)C(=O)C1c1nc2ccccc2s1	inactive
COc1ccc(NC(=O)C(=O)NO)c(OC)c1	inactive
CC/C=C\C/C=C\C/C=C\CCCCCCCC(=O)OCC(O)CO (stereo unspecified)	inactive
O=C(O/N=C1/CCC/C1=C\c1ccccc1)c1ccccc1	inactive
O=[N+]([O-])c1ccc(Sc2c3ccccc3nc3cc(Cl)ccc23)cc1	inactive
CN(C)CC(/C(Cc1ccccc1)=N\NC(=O)C[n+]1ccccc1)c1ccccc1 (stereo unspecified)	inactive
COC(=O)C(=O)C(C(=O)OC)C(=O)C(=O)Nc1cc(Cl)c(Cl)cc1Cl (stereo unspecified)	inactive
CCOC(=O)c1c2ccc(/C=C/c3ccccn3)ccc-2c(C(=O)OCC)c1N	inactive
OCc1c(-c2cccc3ccccc23)sc(-c2cccc3ccccc23)c1CO	inactive
CCC(=O)OC1CCn2c1nc1c2C(=O)C(C)=C(NC(C)=O)C1=O (stereo unspecified)	active
NC(=S)N/N=C/C(O[C@@H](/C=N/NC(N)=S)CO)n1cnc2c(N)ncnc21 (stereo partly specified)	inactive
Nc1ccn(C2OC(COC(=O)C34CC5CC(CC(C5)C3)C4)C(O)C2O)c(=O)n1 (stereo unspecified)	inactive
CC1=C2C3OC(=O)C(C)C3C(O)C[C@@]2(C)C(=O)CC1 (stereo partly specified)	inactive
O=C(O)c1ccccc1C1c2ccc(Cl)cc2Oc2cc(Cl)ccc21	inactive
O=C1OCc2c1cc1ccc(O)c(OC3OC(CO)C(O)C(O)C3O)c1c2-c1ccc2c(c1)OCO2 (stereo unspecified)	inactive
C/C(CC(=O)Nc1ccccc1[N+](=O)[O-])=N\NC(N)=O	inactive

* * *

# Test system: UACC-257
# METHOD: NCI tumour cell line growth inhibition, 48 h
Activity calls are given as the source filed them. Rule as the data show it: active = GI50 up to about 1.1 µM and inactive = higher.

MOLECULE	TARGET SYSTEM	GI50
O=C1NC(NNc2ccccc2)=N/C1=C\c1ccccc1O	UACC-257	40.9 µM (inactive)
CN(CCN(C)CCN(C)C(=O)Cc1ccc(Cl)c(Cl)c1)CCN1CCCC1	UACC-257	5.11 µM (inactive)
CC1(C)OCC[C@@H]1[Si](C)(C)C	UACC-257	> 100 µM (inactive)
O=C1CCCc2ccc3c(c21)CC1(Cc2ccccc2C1)C3	UACC-257	21.4 µM (inactive)
CC(=O)Oc1c2c(c(OC(C)=O)c3c1n(C(C)=O)c1ccccc1n3C(C)=O)n(C(C)=O)c1ccccc1n2C(C)=O	UACC-257	3.42 µM (inactive)
CC1=C2C(=C[C@@](C)(CO)[C@@H]2O)C(=O)[C@](C)(O)C12CC2 [ILLUDIN]	UACC-257	0.0145 µM (active)
COc1ccc2c(c1)CC1Cc3cc(OC)c(OC)cc3CN1CC2 (stereo not given)	UACC-257	33.8 µM (inactive)
O=c1[nH]c2cc(C(F)(F)F)ccc2nc1C(F)(F)F	UACC-257	27.6 µM (inactive)
Cc1cc(O)nc(NN2C(Cl)C(=O)C2c2cccc([N+](=O)[O-])c2)n1 (stereo not given)	UACC-257	29 µM (inactive)
Clc1ccc(C2=C(c3ccccc3)C(c3ccc(Cl)cc3)N3C(=N[C@H]4CCCC[C@@H]43)N2)cc1 (stereo not given in full)	UACC-257	14.9 µM (inactive)

* * *

*1 amine or outer side, *2 acyl side, *3 side chain or, on linkers, in order; H or OH if unused. Where a SMILES comes first, the peptide text is derived from it. Bridges are numbered along the chain shown (N, C = ends). Roman numbers before positions name the chains, in order. [ ]: non-standard residue; d: D form. Actinocin(1to9) = Cc1c2oc3c(C)ccc(C(=O)[*:2])c3nc-2c(C(=O)[*:1])c(N)c1=O; NMeV = CN[CH](C(=O)O)C(C)C; Sar = CNCC(=O)O
GI50 tested on HCT-15: recorded values

COMPOUND	TARGET SYSTEM	RELATION SIGN	GI50 [µM]
CCOc1ccccc1NC(=O)C(=O)CC(=O)C1=C(C)Nc2ccccc2S1	HCT-15	>	100
COc1ccccc1-c1nc(O)c2ccccc2n1	HCT-15	>	100
CN(Cc1ccccc1)c1cc(=O)n(C)c(=O)[nH]1	HCT-15	>	100
COC(=O)c1c(O)ccc2c1c1c(n2Cc2ccccn2)C(=O)c2ccccc2C1=O	HCT-15	=	46
C/N=C(\Nc1cccc(C(F)(F)F)c1)SCc1ccc(N=C=S)cc1	HCT-15	=	7.14
O=C(O)C1CC2C3CCC2C1C3=O (centres undefined)	HCT-15	>	100
C/C(=C/c1c(C)[nH]c(=O)[nH]c1=O)C(=O)O	HCT-15	>	1370
COc1ccc2nc(-c3ccc(O)cc3)cn2c1	HCT-15	=	48.8
Cc1ccc2c(c1)CC1(C2)Cc2ccc(C)cc2C1=O (centres undefined)	HCT-15	=	15.6
CC(C)(C)c1ccc(-n2c3nc(=O)n(-c4ccccc4CO)c(=O)c-3cc3ccccc32)cc1	HCT-15	=	48.4
CN(C)c1ccc2c3c(c(=O)oc2c1)CCC3	HCT-15	=	50.7
CN(C)C(=O)/N=c1\ss/c(=N\C(=S)N(C)C)n1-c1ccccc1	HCT-15	=	15
CC1=C2C(=C[C@@](C)(CO)[C@@H]2O)C(=O)[C@](C)(O)C12CC2	HCT-15	=	0.00675
O=C(O)c1cccc(CN2CCCCC2)c1	HCT-15	>	100
CCN(CC)C(=O)c1ccc(C)c(/N=N/N(C)C)c1	HCT-15	>	100
CCOC(=O)/C(C(N)=O)=C(O)/C(O)=C/C(=O)c1ccc(Cl)cc1	HCT-15	=	17.7
N#CN=C(N(Cc1ccccc1)Cc1ccccc1)N(Cc1ccccc1)Cc1ccccc1	HCT-15	=	6.37
CCOC(=O)C1=C(c2ccccc2)N(C)c2ccccc2S1	HCT-15	=	14.6
CC1=C(O)C(=O)C=C2C1=CC=C1[C@@]2(C)CC[C@@]2(C)C3C[C@@H](C)C(=O)[C@@H](O)[C@]3(C)CC[C@]12C (some centres undefined)	HCT-15	=	1.91
CCOC(=O)/C=C(/C(=O)OCC)n1ccc(=O)n(CC(=O)OCC)c1=O	HCT-15	=	0.463
COC(=O)[C@]12CC[C@H]3CN(C(=O)OCc4ccccc4)[C@H]([C@H]31)[C@H](c1ccco1)N2	HCT-15	=	23.9
CCCC(=O)Oc1ccc2c(C)cc(=O)oc2c1OC(=O)CCC	HCT-15	=	31.8
O=C1CCCc2ccc3c(c21)CC1(Cc2ccccc2C1)C3	HCT-15	=	41.7
Cc1[nH]c2c(c1Cc1ccccc1)C1=NC=C(O)NN1C=N2	HCT-15	=	45.3
CC1(C)Oc2ccccc2OC1O (centres undefined)	HCT-15	>	100
COc1ccc(CC2NC(=O)C(NC(=O)c3c4nc5c(C(=O)NC6C(=O)NC(Cc7ccc(OC)cc7)C(=O)N7CCCC7C(=O)N(C)CC(=O)N(C)C(C(C)C)C(=O)OC6C)ccc(C)c5oc-4c(C)c(=O)c3N)C(C)OC(=O)C(C(C)C)N(C)C(=O)CN(C)C(=O)C3CCCN3C2=O)cc1 (centres undefined) (I: TY(Me)P[Sar][NMeV] / II: TY(Me)P[Sar][NMeV]; ester I:1-I:C, II:1-II:C; linker I:N-II:N via Actinocin(1to9); configuration not given here)	HCT-15	=	0.0579
Cc1cccc(/C=N/NC(=S)N(C)CCc2ccccn2)n1	HCT-15	=	0.196
N#CC(O)CCOCc1ccccc1 (centres undefined)	HCT-15	=	52.4
O=C(O)CCCc1ccc2ccc3ccccc3c2c1	HCT-15	=	51.1
N#Cc1nn(-c2ccc(Cl)cc2)c(=N)c2c(N)n3nc(-c4ccccc4)cc3nc12	HCT-15	=	1
CN(C(=O)Cc1cc(Cl)c(Cl)cc1NC(=O)CCCN)[C@H]1CCCC[C@@H]1N1CCCC1	HCT-15	>	100
Cc1ccc(S(=O)(=O)OC(COC(=O)c2ccccc2)C(OS(=O)(=O)c2ccc(C)cc2)C(OS(=O)(=O)c2ccc(C)cc2)C(COC(=O)c2ccccc2)OS(=O)(=O)c2ccc(C)cc2)cc1 (centres undefined)	HCT-15	>	100
COc1cc2cnc3c4cc(OCc5ccccc5)ccc4ccc3c2cc1OC	HCT-15	=	70.1
c1ccc(-c2ccc(-c3cc4ccccc4[nH]3)cc2)cc1	HCT-15	>	100
COc1ccc(CCC2NCCc3cc(OC)c(OC)cc32)cc1 (centres undefined)	HCT-15	>	100
O=c1oc2ccccc2cc1-c1cn2cc(Cl)ccc2n1	HCT-15	=	0.298
O=[N+]([O-])/C=C/c1cn(CCCCCCCCn2cc(/C=C/[N+](=O)[O-])c3ccccc32)c2ccccc12	HCT-15	>	10
Cc1ccc([N+](=O)[O-])cc1S(=O)(=O)Nc1ccc(C(=O)/C=C/c2ccccc2)cc1	HCT-15	=	19.5
CCc1nc(N)nc(N)c1-c1ccc(Cl)c(Cl)c1	HCT-15	=	3.75
